# Protocol Details: Rat pharmacokinetics, oral or intravenous cassette dosing
# Format: in vivo, rats (strain Wistar RjHAN)
# Condition Set: Wistar RjHAN, rat, plasma; male rats, iv 1 mg/kg
Measurement Kind: AUC(0-inf) (ng·h/mL)

>  <Compound Smiles>
[2H]C([2H])(CC(C)(C)O)n1ncc(-c2onc(-c3c(F)cccc3Cl)c2-c2ncccn2)c1C(F)(F)F

>  <Measurement Kind>
AUC(0-inf)

>  <Unit Of Measure>
ng·h/mL

>  <Value Observed>
3970

$$$$

---

# Protocol Details: Rat pharmacokinetics, oral or intravenous cassette dosing
# Assay type: in vivo, rats (strain Wistar RjHAN)
# Condition Set: Wistar RjHAN, rat, plasma; male rats, po 5 mg/kg
Measurement Kind: Cmax (ng/mL)

>  <Compound Smiles>
[2H]C([2H])(CC(C)(C)O)n1ncc(-c2onc(-c3c(F)cccc3Cl)c2-c2ncccn2)c1C(F)(F)F

>  <Measurement Kind>
Cmax

>  <Value Observed>
215

$$$$

---

# Protocol Details: Mouse pharmacokinetics, oral or intravenous cassette dosing
# Type: in vivo, mice (C57BL/6J)
# Condition Set: C57BL/6J, whole blood, male mice, 5 mg/kg oral vs 1 mg/kg intravenous, read-out: F (bioavailability)

>  <Molecule>
[2H]C([2H])(CC(C)(C)O)n1ncc(-c2onc(-c3c(F)cccc3Cl)c2-c2ncccn2)c1C(F)(F)F [Example 3]

>  <Unit Of Measure>
%

>  <bioavailability>
93

$$$$

---

# Protocol Details: Rat pharmacokinetics, oral or intravenous cassette dosing
# Format: in vivo, rats (strain Wistar RjHAN)
# Condition Set: Wistar RjHAN, rat, plasma; male rats, po 5 mg/kg

>  <Compound>
[2H]C([2H])(CC(C)(C)O)n1ncc(-c2onc(-c3c(F)cccc3Cl)c2-c2ncccn2)c1C(F)(F)F [Example 3]

>  <Unit Of Measure>
µg·h/mL

>  <AUC(0-inf)>
0.692

$$$$

---

# Protocol Details: Rat pharmacokinetics, oral or intravenous cassette dosing
# Format: in vivo, rats (strain Wistar RjHAN)
# Condition Set: Wistar RjHAN, rat, plasma; female rats, iv 1 mg/kg
# Protocol: The pharmacokinetics of the deuterated compounds of the present invention was evaluated in 3 male and 3 female rats (strain Wistar RjHAN, 7-8 week old) after oral or intravenous cassette dosing to asses the oral bioavailability. Rats are provided with a catheter in the jugular vein (2-3 days prior to blood sampling). […]

>  <Compound Smiles>
[2H]C([2H])(CC(C)(C)O)n1ncc(-c2onc(-c3c(F)cccc3Cl)c2-c2ncccn2)c1C(F)(F)F

>  <AUC(0-t)>
3660 ng·h/mL

$$$$

---

# Assay System: RORγt (Homo sapiens, UniProt P51449)
# Sequence (P51449 269-508 limits assumed): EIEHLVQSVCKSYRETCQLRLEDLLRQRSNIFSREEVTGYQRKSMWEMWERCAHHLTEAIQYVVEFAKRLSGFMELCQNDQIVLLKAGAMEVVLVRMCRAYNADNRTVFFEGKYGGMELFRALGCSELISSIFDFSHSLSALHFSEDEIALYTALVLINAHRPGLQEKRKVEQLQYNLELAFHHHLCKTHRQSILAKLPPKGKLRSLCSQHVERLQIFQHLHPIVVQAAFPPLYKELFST
# Protocol Details: Indigo Biosciences Human RAR-related Orphan Receptor, Gamma Reporter Assay (in vitro inhibition of RORγt)
# Condition Set: RORγt reporter cells, luciferase readout, 22-24 h incubation; read-out: IC50 range

>  <Compound Smiles>
[2H]C([2H])(OC([2H])(C([2H])([2H])[2H])C([2H])([2H])[2H])c1c(-c2c(F)cccc2Cl)noc1-c1cnn(-c2cccc(Cl)c2)c1C(F)(F)F

>  <Assay System>
RORγt (Homo sapiens, UniProt P51449)

>  <IC50>
< 10 nM

$$$$
>  <Compound Smiles>
[2H]C([2H])([2H])OC([2H])([2H])c1c(-c2c(F)cccc2Cl)noc1-c1cnn(-c2cccc(Cl)c2)c1C(F)(F)F

>  <Assay System>
RORγt (Homo sapiens, UniProt P51449)

>  <IC50>
< 10 nM

$$$$
>  <Compound Smiles>
[2H]C([2H])([2H])OC(=O)c1c(-c2c(F)cccc2Cl)noc1-c1cnn(-c2cccc(Cl)c2)c1C(F)(F)F

>  <Assay System>
RORγt (Homo sapiens, UniProt P51449)

>  <IC50>
< 10 nM

$$$$

---

# Protocol Details: Rat pharmacokinetics, oral or intravenous cassette dosing
# Type: in vivo, rats (strain Wistar RjHAN)
# Condition Set: Wistar RjHAN, rat, plasma; female rats, iv 1 mg/kg

>  <Compound Smiles>
[2H]C([2H])(CC(C)(C)O)n1ncc(-c2onc(-c3c(F)cccc3Cl)c2-c2ncccn2)c1C(F)(F)F

>  <AUC(0-inf)>
3780 ng·h/mL

$$$$

---

# Protocol Details: Microsomal stability, rat liver microsomes
# Condition Set: rat liver microsomes batch 9078001 (Corning), 60 min
Measurement Kind: microsomal CLint

>  <Compound Smiles>
[2H]C([2H])(CC(C)(C)O)n1ncc(-c2onc(-c3c(F)cccc3Cl)c2-c2ncccn2)c1C(F)(F)F

>  <Value Observed>
30.2 µL/min/mg

$$$$

---

# Assay System: RORγt (Homo sapiens)
# Protocol Details: Indigo Biosciences Human RAR-related Orphan Receptor, Gamma Reporter Assay (in vitro inhibition of RORγt)
# Format: cell-based
# Condition Set: RORγt reporter cells, luciferase readout, 22-24 h incubation; read-out: IC50 range

>  <Compound Smiles>
[2H]C([2H])(OC1CC1)c1c(-c2c(F)cccc2Cl)noc1-c1cnn(-c2cccc(Cl)c2)c1C(F)(F)F

>  <IC50>
10 to 100 nM

$$$$
>  <Compound Smiles>
[2H]c1nc(-c2c(-c3c(F)cccc3Cl)noc2-c2cnn(C([2H])([2H])CC(C)(C)O)c2C(F)(F)F)sc1[2H]

>  <IC50>
< 10 nM

$$$$
>  <Compound Smiles>
[2H]C([2H])(OC(C)C)c1c(-c2c(F)cccc2Cl)noc1-c1cnn(-c2cc(F)cc(Cl)c2)c1C(F)(F)F

>  <IC50>
10 to 100 nM

$$$$
>  <Compound Smiles>
[2H]C([2H])(CC(C)(C)O)n1ncc(-c2onc(-c3c(F)cccc3Cl)c2C(=O)OC)c1C(F)(F)F

>  <IC50>
10 to 100 nM

$$$$
>  <Compound Smiles>
[2H]c1c([2H])c(F)c(-c2noc(-c3cnn(C([2H])([2H])CC(C)(C)O)c3C(F)(F)F)c2-c2ncccn2)c(Cl)c1[2H]

>  <IC50>
< 10 nM

$$$$
>  <Compound Smiles>
[2H]C([2H])(OC([2H])([2H])C([2H])([2H])[2H])c1c(-c2c(F)cccc2Cl)noc1-c1cnn(-c2cccc(Cl)c2)c1C(F)(F)F

>  <IC50>
10 to 100 nM

$$$$
>  <Compound Smiles>
[2H]C([2H])(OC(C)C)c1c(-c2c(F)cc(F)cc2Cl)noc1-c1cnn(-c2cccc(Cl)c2)c1C(F)(F)F

>  <IC50>
100 to 1000 nM

$$$$
>  <Compound Smiles>
[2H]c1cc([2H])c(-n2ncc(-c3onc(-c4c(F)cccc4Cl)c3-c3nccs3)c2C(F)(F)F)c([2H])c1Cl

>  <IC50>
< 10 nM

$$$$
>  <Compound Smiles>
[2H]C([2H])([2H])C([2H])([2H])OC(=O)c1c(-c2c(F)cccc2Cl)noc1-c1cnn(-c2cccc(Cl)c2)c1C(F)(F)F

>  <IC50>
< 10 nM

$$$$
>  <Compound Smiles>
[2H]C([2H])(CC(C)(C)O)n1ncc(-c2onc(-c3c(F)cccc3Cl)c2-c2nccs2)c1C(F)(F)F

>  <IC50>
< 10 nM

$$$$
>  <Compound Smiles>
[2H]C([2H])(CC(C)(C)O)n1ncc(-c2onc(-c3c(F)cccc3Cl)c2-c2ncccn2)c1COC

>  <IC50>
100 to 1000 nM

$$$$
>  <Compound Smiles>
[2H]C([2H])([2H])OC(=O)c1c(-c2c(F)cccc2Cl)noc1-c1cnn(C([2H])([2H])CC(C)(C)O)c1C(F)(F)F

>  <IC50>
10 to 100 nM

$$$$
>  <Compound Smiles>
[2H]c1nc(-c2c(-c3c(F)cccc3Cl)noc2-c2cnn(C([2H])([2H])CC(C)(C)O)c2C(F)(F)F)nc([2H])c1[2H]

>  <IC50>
10 to 100 nM

$$$$

---

# Protocol Details: Rat pharmacokinetics, oral or intravenous cassette dosing
# Assay type: in vivo, rats (strain Wistar RjHAN)
# Condition Set: Wistar RjHAN, rat, plasma; female rats, po 5 mg/kg
# Experimental: The pharmacokinetics of the deuterated compounds of the present invention was evaluated in 3 male and 3 female rats (strain Wistar RjHAN, 7-8 week old) after oral or intravenous cassette dosing to asses the oral bioavailability. Rats are provided with a catheter in the jugular vein (2-3 days prior to blood sampling). […]
Measurement Kind: AUC(0-inf) (ng·h/mL)

>  <Compound>
[2H]C([2H])(CC(C)(C)O)n1ncc(-c2onc(-c3c(F)cccc3Cl)c2-c2ncccn2)c1C(F)(F)F [Example 3]

>  <Measurement Kind>
AUC(0-inf)

>  <Value Observed>
2950

$$$$

---

# Protocol Details: Mouse pharmacokinetics, oral or intravenous cassette dosing
# Assay type: in vivo, mice (C57BL/6J)
# Condition Set: C57BL/6J, whole blood, 3 female mice, 5 mg/kg oral cassette, sampling 0.5-24 h

>  <Compound>
[2H]C([2H])([2H])OC(=O)c1c(-c2c(F)cccc2Cl)noc1-c1cnn(-c2cccc(Cl)c2)c1C(F)(F)F [Example 100]

>  <Cmax / ng/mL>
50.5

$$$$
>  <Compound>
[2H]C([2H])(OC1CC1)c1c(-c2c(F)cccc2Cl)noc1-c1cnn(-c2cccc(Cl)c2)c1C(F)(F)F [Example 102]

>  <Cmax / ng/mL>
272

$$$$

From: patent US20250243190A1
